- assay protocol: Cytotoxicity assay (MTT) on fresh spleen cells
- Format: cell-based, mice
- experimental context: BALB/C, fresh spleen cells (T-lymphocytes); T-lymphocyte (mouse spleen cells), 48 h, MTT
outcome measure: CC50 at 48 h
Form field: result (number plus unit)

Prompt: Looking for the measured CC50 at 48 h of CO[C@H]1[C@@H](O)[C@@H](C)O[C@@H](O[C@H]2[C@@H](OC)C[C@H](O[C@H]3[C@@H](OC)C[C@H](O[C@H]4[C@@H](OC)C[C@@H](O[C@@H]5[C@@H](C)O[C@@]6(C[C@H]5OC)OCO[C@@H]5C[C@H](O[C@@H](C)[C@@]7(O)CCC8C9CC=C%10C[C@@H](O)CC[C@]%10(C)C9CC[C@@]87C)O[C@H](C)[C@H]5O6)O[C@@H]4C)O[C@@H]3C)O[C@@H]2C)[C@@H]1OC(C)=O (stereo partly drawn) [C1′′′-epi-periploside A (41), C1′′′-epi-periploside A] , can you help?
Response: 11.4 µM
